- assay-method-text: HRP/luminol detection interference without ALR, dose response, artefact control for ALR inhibitor project, biochemical, luminescence, no ALR or DTT, cherry-pick (AID 540356)
- assay-conditions: HRP/H2O2 luminol luminescence counterscreen; series mostly up to 10 µM
The whole screen tested about 2,500 compounds, of which about 360 (14%) were called active.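 Rule for the calls: active = signal-lowering compounds whose fitted half-maximal concentration AC50 is no higher than ten times their top tested concentration; inconclusive = flat curve with 30 to 70% inhibition, or poor fit; inactive = flat within 30%, signal increase, or AC50 above limit.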 The list is a sample of the results.
Mark one answer only. Choices: True (active), False (inactive)

(Q) Status in this test for `S=c1[nH]nc(C2CCCCC2)n1/N=C/c1ccccn1` ?
(A) False

(Q) Do the same for `O=C(O)CCCN1C(=O)/C(=C\c2ccc(-c3nc4ccccc4s3)o2)SC1=S` please
(A) False

(Q) What do we get for CC(=O)NC(C)C(c1cccs1)N1CCN(c2ccccc2)CC1 (stereo not given) ?
(A) False

* * *

- assay-method-text: HRP/luminol detection interference without ALR, dose response, artefact control for ALR inhibitor project, biochemical, luminescence, no ALR or DTT, cherry-pick (AID 540356)
- assay-conditions: HRP/H2O2 luminol luminescence counterscreen; series mostly up to 10 µM
The campaign covered roughly 2,500 compounds. About 360 (14%) were called active.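 Rule for the calls: active = signal-lowering compounds whose fitted half-maximal concentration AC50 is no higher than ten times their top tested concentration; inconclusive = flat curve with 30 to 70% inhibition, or poor fit; inactive = flat within 30%, signal increase, or AC50 above limit.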 These entries were drawn from the full list.
Please state which outcome applies, choosing from active, inactive

Worked cases, answers included:
# compound, assigned-class
measured = [
    ("CC1C(=O)NN=C1C(=O)N/N=C\\c1ccc(O)cc1O (configuration not stated)", "active"),
    ("Cc1nc(SCc2ccc(Cl)c(Cl)c2)ncc1C(=O)O", "inactive"),
    ("CC(=O)N1CCN(C(=S)c2ccc(N(C)C)cc2)CC1", "inactive"),
    ("Cc1c(/C=N\\NC(=O)c2ccc(F)cc2)cnn1C", "inactive"),
    ("O=C(NCC(=O)N1CCN(c2ccccc2O)CC1)c1cccs1", "inactive"),
    ("COc1ccc(C(=O)N2CCN=C2SCc2cccnc2)c(OC)c1", "inactive"),
    ("CCCCC(NC(=O)Cc1c(C)c2cc3c(C)c(C)oc3c(C)c2oc1=O)C(=O)O (configuration not stated)", "inactive"),
    ("COc1ccc(/C=N/NC(=O)c2ccn[nH]2)cc1CSc1ccccn1", "inactive"),
    ("O=C(NNc1c2ccccc2nc2ccccc12)c1ccc(O)cc1O", "inactive"),
    ("Cc1ccc(N2C(=O)CC(NNC(=O)c3cccc(S(=O)(=O)N4CCCC4)c3)C2=O)cc1 (configuration not stated)", "inactive"),
]

(Q) In this assay, the call recorded for `Cc1ccc(CN2CCSc3ccc(C(=O)NCCCN4CCN(C)CC4)cc32)cc1` was what?
(A) inactive

(Q) Again, but for `CCN(CC)c1ccc(NC(=O)c2ccc(Br)o2)c(C)c1`
(A) inactive

These measurements were taken from PubChem BioAssay AID540356.
